test system: Sodium/Iodide Symporter (NIS), SLC5A5 (gene 6528); experiment: CPHEA_Stoker_NIS_Inhibition_RAIU: CPHEA's Radioactive Iodide Uptake (RAIU) Assay for Sodium/Iodide Symporter (NIS) Inhibition, Stoker and Laws Labs (AID 2283841)
Inconclusive results are not listed. Calls of active or inactive are those of the source. How the source made its calls: active means hit-call score of the fitted dose curve at least 0.9, where 1 is the maximum; inconclusive means response in the unintended direction; inactive means score below 0.9.
Please state which outcome applies, choosing from active, inactive

Query :: In this assay, the call recorded for CC(=O)C1=C(C)[C@@H]2C[C@@]3(C1)[C@H](C)CC[C@H]3C2(C)C was what?
Result :: inactive

Query :: In this assay, the call recorded for O=C(O)C(F)(F)OC(F)(F)C(F)(F)OC(F)(F)C(F)(F)C(F)(F)C(F)(F)F was what?
Result :: inactive

Query :: In this assay, the call recorded for CCC(C)COC(=O)CC(C)C (centres undefined) was what?
Result :: inactive

Query :: In this assay, the call recorded for CCCCCC1CCC(=O)O1 (centres undefined) was what?
Result :: inactive

Query :: In this assay, the call recorded for O=C(OCc1ccccc1)c1ccccc1O was what?
Result :: active

Query :: In this assay, the call recorded for c1ccc(Cc2ccccc2)cc1 was what?
Result :: inactive

Query :: In this assay, the call recorded for CC(=O)N(C)C was what?
Result :: inactive

Query :: In this assay, the call recorded for CC(=O)OC(C)(C)C was what?
Result :: inactive

Query :: In this assay, the call recorded for O=C(O)C(F)(F)C(F)(F)C(F)(F)C(F)(F)C(F)(F)C(F)(F)C(F)(F)C(F)F was what?
Result :: active

* * *

assay: ATG_ERE_CIS: Attagene CIS-FACTORIAL HepG2 Assay for Estrogen Response Element (ERE) (AID 2282940); conditions: HepG2 ERE cis-reporter, Attagene RNA transcript; actives raise or lower the signal
Calls of active or inactive are those of the source. How the source made its calls: active means hit-call score of the fitted dose curve at least 0.9, where 1 is the maximum; inactive means score below 0.9.
Please state which outcome applies, choosing from TRUE = active, FALSE = inactive

Query :: In this assay, the call recorded for Cc1cccc(O)c1 was what?
Result :: FALSE

Query :: In this assay, the call recorded for NS(=O)(=O)c1cc(C(=O)O)c(NCc2ccco2)cc1Cl was what?
Result :: FALSE

Query :: In this assay, the call recorded for CC(C)CCCC(C)(C)O was what?
Result :: FALSE

Query :: In this assay, the call recorded for CCCCCC1CCC(=O)O1 (stereo not drawn) was what?
Result :: FALSE

Query :: In this assay, the call recorded for CCC(C)C1CCCCC1=O (stereo not drawn) was what?
Result :: FALSE

Query :: In this assay, the call recorded for CC(=O)C1C(=O)C=C(C)OC1=O (stereo not drawn) was what?
Result :: FALSE

Query :: In this assay, the call recorded for CCCCCCCOC(C)=O was what?
Result :: TRUE

Query :: In this assay, the call recorded for CCCCCCCCCCCCS was what?
Result :: FALSE

Query :: In this assay, the call recorded for CC1(C)[C@H](C=C(Cl)Cl)[C@H]1C(=O)OCc1cccc(Oc2ccccc2)c1 was what?
Result :: FALSE

Query :: In this assay, the call recorded for [Cl][Dy]([Cl])[Cl] was what?
Result :: FALSE

Query :: In this assay, the call recorded for CCCCOCCOCCO was what?
Result :: FALSE

Query :: In this assay, the call recorded for OCCN1CCOCC1 was what?
Result :: TRUE

Query :: In this assay, the call recorded for CCCCOCC(C)OCC(C)O (stereo not drawn) was what?
Result :: FALSE

Query :: In this assay, the call recorded for CCC(C)(C)c1cc(O)c(C(C)(C)CC)cc1O was what?
Result :: FALSE

Query :: In this assay, the call recorded for COc1ccc(OC)cc1 was what?
Result :: FALSE

Query :: In this assay, the call recorded for C1=COCCC1 was what?
Result :: FALSE

Query :: In this assay, the call recorded for CC(C)C(=O)c1ccccc1 was what?
Result :: TRUE

Query :: In this assay, the call recorded for O=Cc1ccccc1O was what?
Result :: TRUE

Query :: In this assay, the call recorded for CC1=CC[C@@H]2C[C@H]1C2(C)C was what?
Result :: FALSE

Query :: In this assay, the call recorded for CC1COC(=O)O1 (stereo not drawn) was what?
Result :: FALSE

Query :: In this assay, the call recorded for NNC(=O)OCc1ccccc1 was what?
Result :: FALSE

Query :: In this assay, the call recorded for CCCCCCCCSCc1cc(C)c(O)c(CSCCCCCCCC)c1 was what?
Result :: FALSE

Query :: In this assay, the call recorded for CC(C)(C)c1cccc(O)c1 was what?
Result :: FALSE

Query :: In this assay, the call recorded for CCCC1CCC(=O)CC1 was what?
Result :: FALSE

Query :: In this assay, the call recorded for CCC=C(C)C=O was what?
Result :: TRUE

Query :: In this assay, the call recorded for CCC(=O)OC/C=C(\C)CCC=C(C)C was what?
Result :: FALSE

Query :: In this assay, the call recorded for CCCCC/C=C\C=C\C(=O)OCC was what?
Result :: FALSE

Query :: In this assay, the call recorded for CCC(=O)OC(C)(C)C1CC=C(C)CC1 (stereo not drawn) was what?
Result :: TRUE

Query :: In this assay, the call recorded for FC(F)(F)c1ccc(Cl)c(Cl)c1 was what?
Result :: FALSE

Query :: In this assay, the call recorded for Cc1cc(O)c2c(c1)C(=O)c1cc(O)cc(O)c1C2=O was what?
Result :: TRUE

Query :: In this assay, the call recorded for O=C(O)C1=NN(c2ccc(S(=O)(=O)O)cc2)C(=O)C1 was what?
Result :: FALSE

Query :: In this assay, the call recorded for C[C@H](CCC(=O)O)[C@H]1CC[C@H]2[C@@H]3CC[C@@H]4C[C@H](O)CC[C@]4(C)[C@H]3CC[C@]12C was what?
Result :: FALSE

Query :: In this assay, the call recorded for COc1ccccc1NC(=O)CC(C)=O was what?
Result :: FALSE

Query :: In this assay, the call recorded for C[N+](C)(C)CCO was what?
Result :: FALSE

Query :: In this assay, the call recorded for C=C1CC/C=C(\C)CC[C@@H]2[C@@H]1CC2(C)C was what?
Result :: TRUE

Query :: In this assay, the call recorded for CC(C)CCOC(=O)CC(C)C was what?
Result :: FALSE

Query :: In this assay, the call recorded for CC(=O)N(C)C was what?
Result :: FALSE

Query :: In this assay, the call recorded for CC(=O)OCC=C(C)CCC=C(C)CCC=C(C)C was what?
Result :: TRUE

Query :: In this assay, the call recorded for CCC(C)(C)C1CCC(OC)CC1 (stereo not drawn) was what?
Result :: FALSE

Query :: In this assay, the call recorded for COC(=O)c1cccc(C(=O)OC)c1 was what?
Result :: FALSE

Query :: In this assay, the call recorded for O=c1cc(-c2ccc(O)cc2)oc2cc(O)cc(O)c12 was what?
Result :: TRUE

Query :: In this assay, the call recorded for CC(=O)OC/C=C(C)/C=C/C=C(C)/C=C/C1=C(C)CCCC1(C)C was what?
Result :: FALSE

Query :: In this assay, the call recorded for CC(C)COC(=O)c1ccccc1 was what?
Result :: FALSE

Query :: In this assay, the call recorded for C=C(C)CCCC(C)CCO (stereo not drawn) was what?
Result :: FALSE

Query :: In this assay, the call recorded for CNC(=C[N+](=O)[O-])NCCSCc1ccc(CN(C)C)o1 was what?
Result :: FALSE

Query :: In this assay, the call recorded for CC(=N[Si](C)(C)C)O[Si](C)(C)C was what?
Result :: FALSE

Query :: In this assay, the call recorded for Nc1ccc(N)c([N+](=O)[O-])c1 was what?
Result :: TRUE

Query :: In this assay, the call recorded for O=[N+]([O-])c1cc(N(CCO)CCO)ccc1NCCO was what?
Result :: FALSE

Query :: In this assay, the call recorded for CCCCCCCCCC(=O)OCC was what?
Result :: FALSE

Query :: In this assay, the call recorded for CC/C=C\C#N was what?
Result :: FALSE

Query :: In this assay, the call recorded for CC(C)N(c1ccccc1)C(C)C was what?
Result :: FALSE

Query :: In this assay, the call recorded for COc1ccc(C(C)=O)cc1 was what?
Result :: FALSE

Query :: In this assay, the call recorded for CC(C)N1C(=O)c2ccccc2C1=O was what?
Result :: TRUE

Query :: In this assay, the call recorded for CC(O)CN (stereo not drawn) was what?
Result :: FALSE

Query :: In this assay, the call recorded for CCCO[Si](OCCC)(OCCC)OCCC was what?
Result :: FALSE

Query :: In this assay, the call recorded for N=C1N=C(N)c2ccccc21 was what?
Result :: TRUE

Query :: In this assay, the call recorded for CC(=O)CC(C)(C)C1CCCCC1 was what?
Result :: FALSE

Query :: In this assay, the call recorded for CC(C)(C)c1ccc(S)cc1 was what?
Result :: FALSE

Query :: In this assay, the call recorded for O=C(O)c1ccco1 was what?
Result :: FALSE

Query :: In this assay, the call recorded for S=c1[nH][nH]c(=S)s1 was what?
Result :: FALSE

Query :: In this assay, the call recorded for CC(C)COC(=O)c1ccccc1O was what?
Result :: FALSE

Query :: In this assay, the call recorded for CCO[Si](CC)(OCC)OCC was what?
Result :: FALSE

Query :: In this assay, the call recorded for C=CCCCCCCCCC(=O)OCC was what?
Result :: FALSE
